Collected melting point values appear next to each entry.

{"columns": ["COMPOUND", "melting point"],
 "data": [
  ["NS(=O)(=O)c1ccc2c(c1)CCN2C(=O)C1CCCCC1", "> 250 °C"],
  ["NS(=O)(=O)c1ccc2c(c1)CCN2C(=O)c1ccncc1 [Compound 4q, 1-Isonicotinoylindoline-5-sulfonamide]", "> 250 °C"]
]}

Q: Dear colleague, please send me the reported melting point for "NS(=O)(=O)c1ccc2c(c1)CCN2C(=O)C1CCCC1" when you can.
Result: 233 to 235 °C

Q: For the compound "CSc1ccc(C(=O)N2CCc3cc(S(N)(=O)=O)ccc32)cc1" , report melting point.
Result: 245 to 247 °C

Q: Look up and state reported melting point for "NS(=O)(=O)c1ccc2c(c1)CCN2C(=O)c1ccc(Cl)c(Cl)c1"
Result: > 250 °C

Q: Give reported melting point value for "COc1ccc(C(=O)N2CCc3cc(S(N)(=O)=O)ccc32)c(OC)c1"
Result: 249 to 251 °C

Q: Name the recorded melting point of the compound listed here: "NS(=O)(=O)c1ccc2c(c1)CCN2C(=O)c1cccs1"
Result: > 250 °C

Q: // fetch melting point given entry "NS(=O)(=O)c1ccc2c(c1)CCN2C(=O)c1ccc(F)cc1"
Result: > 250 °C

Q: Tell me measured melting point for "NS(=O)(=O)c1ccc2c(c1)CCN2C(=O)CC1CCCC1" please.
Result: 184 to 186 °C

Q: Respond only with melting point recorded for "COc1cc(C(=O)N2CCc3cc(S(N)(=O)=O)ccc32)cc(OC)c1OC"
Result: 248 to 250 °C

Q: Dear colleague, please send me the reported melting point for "NS(=O)(=O)c1ccc2c(c1)CCN2C(=O)c1c(F)c(F)c(F)c(F)c1F" when you can.
Result: 187 to 189 °C

Q: Provide measured melting point value, entry: "NS(=O)(=O)c1ccc2c(c1)CCN2C(=O)c1cccc(Cl)c1"
Result: > 250 °C

Q: In one line, give reported melting point of the entry NS(=O)(=O)c1ccc2c(c1)CCN2Cc1ccccc1 [Compound 10, 1-Benzylindoline-5-sulfonamide] .
Result: 144 to 146 °C

Q: Return melting point for the following compound: "Cc1cccc(C(=O)N2CCc3cc(S(N)(=O)=O)ccc32)c1"
Result: 247 to 249 °C

Q: Fill in melting point for record "COc1ccc(C(=O)N2CCc3cc(S(N)(=O)=O)ccc32)cc1"
Result: 240 to 242 °C

Q: Complete the entry with melting point for "NS(=O)(=O)c1ccc2c(c1)CCN2C(=O)c1ccc(Cl)cc1"
Result: > 250 °C

Q: Read off the recorded melting point for "NS(=O)(=O)c1ccc2c(c1)CCN2C(=O)c1cccc(F)c1"
Result: > 250 °C

Q: Give the reported value of melting point for this record: "COc1cccc(C(=O)N2CCc3cc(S(N)(=O)=O)ccc32)c1"
Result: 225 to 227 °C

====

# TARGET OR SYSTEM: hCA II (Homo sapiens, UniProt P00918)
pKi: −log10 of the molar value.
ASSAY METRIC: pKi

# example entries with known answers
{"columns": ["COMPOUND", "pKi"],
 "data": [
  ["NS(=O)(=O)c1ccc2c(c1)CCN2C(=O)c1cccc(Cl)c1", 7.50],
  ["NS(=O)(=O)c1ccc2c(c1)CCN2C(=O)c1ccc([N+](=O)[O-])cc1 [Compound 4p, 1-(4-Nitrobenzoyl)indoline-5-sulfonamide]", 7.37],
  ["NS(=O)(=O)c1ccc2c(c1)CCN2C(=O)c1ccccc1 [Compound 4a, 1-Benzoylindoline-5-sulfonamide]", 8.27],
  ["COc1cc(C(=O)N2CCc3cc(S(N)(=O)=O)ccc32)cc(OC)c1OC", 8.52],
  ["NS(=O)(=O)c1ccc2c(c1)CCN2C(=O)CC1CCCC1", 8.46]
]}

I. NS(=O)(=O)c1ccc2c(c1)CCN2C(=O)c1ccncc1 [Compound 4q, 1-Isonicotinoylindoline-5-sulfonamide]
II. NS(=O)(=O)c1ccc2c(c1)CCN2Cc1ccccc1 [Compound 10, 1-Benzylindoline-5-sulfonamide]
Q: Please compare: I and II . Report which one has the smaller pKi value. Your answer should be the label attached to the chosen record.
Result: I

I. Cc1cccc(C(=O)N2CCc3cc(S(N)(=O)=O)ccc32)c1
II. NS(=O)(=O)c1ccc2c(c1)CCN2C(=O)c1ccc(Cl)cc1
Q: Please choose the item with the lower pKi value from this pair: I and II Select an item and report its label.
Result: II
(II: 7.18, I: 7.44)

====

Here's a batch of compounds along with measured Ki for hCA XII (Homo sapiens, UniProt O43570).
ASSAY METRIC: Ki (nM)

{"columns": ["COMPOUND", "TARGET OR SYSTEM", "Ki (nM)"],
 "data": [
  ["NS(=O)(=O)c1ccc2c(c1)CCN2C(=O)c1c(F)cccc1F [Compound 4d]", "hCA XII (Homo sapiens, UniProt O43570)", 41.3]
]}

a. COc1cc(C(=O)N2CCc3cc(S(N)(=O)=O)ccc32)cc(OC)c1OC [Compound 4m]
b. NS(=O)(=O)c1ccc2c(c1)CCN2C(=O)c1ccc(Cl)cc1 [Compound 4g]
Q: In terms of reported Ki, does a or b have the smaller number? Your choice should be expressed through its label.
Result: b

====

Reported melting point values follow for various molecules

Solved cases (3 shown):
{"columns": ["MOLECULE", "OBSERVED RESULT"],
 "data": [
  ["NS(=O)(=O)c1ccc2c(c1)CCN2C(=O)c1ccccc1[N+](=O)[O-] [Compound 4o, 1-(2-Nitrobenzoyl)indoline-5-sulfonamide]", "238 to 240 °C"],
  ["NS(=O)(=O)c1ccc2c(c1)CCN2C(=O)c1c(F)cccc1F", "244 to 246 °C"],
  ["NS(=O)(=O)c1ccc2c(c1)CCN2C(=O)c1ccccc1 [Compound 4a, 1-Benzoylindoline-5-sulfonamide]", "> 250 °C"]
]}

Field: next molecule
Q: Find the measured melting point of NS(=O)(=O)c1ccc2c(c1)CCN2C(=O)c1ccc([N+](=O)[O-])cc1 [Compound 4p, 1-(4-Nitrobenzoyl)indoline-5-sulfonamide] and report it.
Result: 247 to 249 °C

====

# TARGET OR SYSTEM: UniProt:P00915
# Sequence (P00915 whole entry): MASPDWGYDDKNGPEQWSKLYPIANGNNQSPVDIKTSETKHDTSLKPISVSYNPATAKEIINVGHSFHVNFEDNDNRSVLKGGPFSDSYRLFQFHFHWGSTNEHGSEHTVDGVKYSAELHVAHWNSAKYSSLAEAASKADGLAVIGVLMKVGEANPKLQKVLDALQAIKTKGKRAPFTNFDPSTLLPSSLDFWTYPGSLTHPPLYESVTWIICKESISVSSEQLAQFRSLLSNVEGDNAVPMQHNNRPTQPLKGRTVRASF
ASSAY METRIC: Ki (nM)

{"columns": ["MOLECULE", "TARGET OR SYSTEM", "ASSAY METRIC", "OBSERVED RESULT"],
 "data": [
  ["NS(=O)(=O)c1ccc2c(c1)CCN2C(=O)c1ccc(Cl)c(Cl)c1", "UniProt:P00915", "Ki", 350],
  ["NS(=O)(=O)c1ccc2c(c1)CCN2C(=O)c1c(F)cccc1F", "UniProt:P00915", "Ki", 268],
  ["NS(=O)(=O)c1ccc2c(c1)CCN2Cc1ccccc1 [Compound 10, 1-Benzylindoline-5-sulfonamide]", "UniProt:P00915", "Ki", 41],
  ["NS(=O)(=O)c1ccc2c(c1)CCN2C(=O)c1cccc(F)c1", "UniProt:P00915", "Ki", 65.9],
  ["NS(=O)(=O)c1ccc2c(c1)CCN2C(=O)c1ccncc1 [Compound 4q, 1-Isonicotinoylindoline-5-sulfonamide]", "UniProt:P00915", "Ki", 64]
]}

P. NS(=O)(=O)c1ccc2c(c1)CCN2C(=O)c1ccccc1 [Compound 4a, 1-Benzoylindoline-5-sulfonamide]
Q. NS(=O)(=O)c1ccc2c(c1)CCN2C(=O)c1c(F)c(F)c(F)c(F)c1F
Q: Of P versus Q , which is the one with smaller reported Ki? Refer to your chosen entry by its label in the reply.
Result: Q

====

# TARGET OR SYSTEM: hCA IX (Homo sapiens, UniProt Q16790)
ASSAY METRIC: Ki (nM)

{"columns": ["QUERY SMILES", "TARGET OR SYSTEM", "OBSERVED RESULT"],
 "data": [
  ["NS(=O)(=O)c1ccc2c(c1)CCN2C(=O)CC1CCCC1", "hCA IX (Homo sapiens, UniProt Q16790)", 177]
]}

a. COc1ccc(C(=O)N2CCc3cc(S(N)(=O)=O)ccc32)cc1
b. NS(=O)(=O)c1ccc2c(c1)CCN2C(=O)c1c(F)cccc1F
Q: Which record would sort first by descending Ki, a or b ? Indicate which entry you chose by stating its label.
Result: b
(b: 1330 nM, a: 173 nM)

====

Overview of recorded Ki for various compounds
# TARGET OR SYSTEM: hCA IX (Homo sapiens, UniProt Q16790)

# example entries with known answers
{"columns": ["COMPOUND", "TARGET OR SYSTEM", "Ki"],
 "data": [
  ["NS(=O)(=O)c1ccc2c(c1)CCN2C(=O)c1ccccc1[N+](=O)[O-] [Compound 4o, 1-(2-Nitrobenzoyl)indoline-5-sulfonamide]", "hCA IX (Homo sapiens, UniProt Q16790)", "> 10 µM"],
  ["NS(=O)(=O)c1ccc2c(c1)CCN2Cc1ccccc1 [Compound 10, 1-Benzylindoline-5-sulfonamide]", "hCA IX (Homo sapiens, UniProt Q16790)", "> 10 µM"]
]}

Now consider a different compound.
Q: State Ki (hCA IX (Homo sapiens, UniProt Q16790)) of NS(=O)(=O)c1ccc2c(c1)CCN2C(=O)c1ccc([N+](=O)[O-])cc1 [Compound 4p, 1-(4-Nitrobenzoyl)indoline-5-sulfonamide] .
Result: 2.11 µM

Just for reference, paper PMC9783868 is where these values come from.
